Data provenance: paper PMC4429480

assayName: Oral pharmacokinetic interaction study of LUME and 97-78 in rats (LC-ESI-MS/MS, non-compartmental analysis)
Type: in vivo, male Sprague–Dawley rats
conditionDetails: male, Sprague-Dawley, rat, plasma, po, 10 mg/kg, LUME 10 mg/kg oral co-administered with 97-78 70 mg/kg oral, rats n = 5, mean ± SD
Protocol: Study was performed in male Sprague–Dawley rats (n = 5, weight range 200–220 g). The rats were fasted overnight (14–16 hrs) prior to the experiment but given free access to water. […] Plasma data were subjected to non-compartmental pharmacokinetics analysis using WinNonlin (version 5.1, Pharsight Corp, Mountain View, CA, USA). […] Area under the plasma concentration-time curve from time zero to the last quantifiable concentration (AUC0-t) was calculated using linear trapezoidal rule. […]
valueKind: AUC(0-inf) (ng·h/mL)
Give bare numbers, in ng·h/mL.

Which measured AUC(0-inf) value corresponds to CCCCN(CCCC)CC(O)c1cc(Cl)cc2c1-c1ccc(Cl)cc1C2=Cc1ccc(Cl)cc1 (stereo not shown) [LUME] ?
11000
